assayed.target: Ecm22 (UniProt Q05958)
Sequence: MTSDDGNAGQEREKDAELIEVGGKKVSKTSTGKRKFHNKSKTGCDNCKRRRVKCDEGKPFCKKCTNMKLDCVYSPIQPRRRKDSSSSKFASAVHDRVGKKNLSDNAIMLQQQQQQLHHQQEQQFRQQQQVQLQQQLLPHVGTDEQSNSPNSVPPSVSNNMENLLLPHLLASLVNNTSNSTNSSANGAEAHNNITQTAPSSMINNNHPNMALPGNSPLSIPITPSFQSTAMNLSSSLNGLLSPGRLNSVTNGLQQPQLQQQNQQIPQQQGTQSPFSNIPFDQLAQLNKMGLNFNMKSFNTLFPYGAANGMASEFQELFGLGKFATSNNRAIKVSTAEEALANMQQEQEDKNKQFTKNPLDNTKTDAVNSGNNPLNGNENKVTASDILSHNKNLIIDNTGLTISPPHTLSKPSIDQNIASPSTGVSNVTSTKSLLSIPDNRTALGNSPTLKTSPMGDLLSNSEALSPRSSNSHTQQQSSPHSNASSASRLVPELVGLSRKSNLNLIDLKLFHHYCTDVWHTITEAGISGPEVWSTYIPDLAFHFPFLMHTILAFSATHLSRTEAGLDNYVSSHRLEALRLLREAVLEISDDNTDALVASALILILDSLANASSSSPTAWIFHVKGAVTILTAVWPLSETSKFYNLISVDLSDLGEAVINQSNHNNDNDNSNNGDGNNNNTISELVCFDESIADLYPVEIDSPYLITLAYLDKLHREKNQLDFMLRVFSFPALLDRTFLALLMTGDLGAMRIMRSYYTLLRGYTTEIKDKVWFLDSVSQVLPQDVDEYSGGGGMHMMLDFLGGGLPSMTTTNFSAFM
method.summary: PBM E-score (8-mer binding enrichment) (E-score (-0.5 to 0.5)); higher = stronger / more preferred TF binding
stated.conditions: protein concentration: 200 nM; construct: GST-full length
In all, about 33,000 sequences were measured (“E-score (-0.5 to 0.5)”: median about -0.041, highest 2% from about 0.37 on). This is one part of a sample in which the highest values are shown more often than they occur.
Catalogue of sequences with associated PBM E-score

biosequence: GCGGTTAA
PBM E-score: -0.0219

biosequence: AGGAGTAT
PBM E-score: -0.109

biosequence: AGTCGTCA
PBM E-score: -0.236

biosequence: GCGAGCAA
PBM E-score: 0.198

biosequence: CCATTCCA
PBM E-score: -0.228

biosequence: AAACGAGT
PBM E-score: 0.456

biosequence: AGAAGGCA
PBM E-score: -0.166

biosequence: CTACGGCC
PBM E-score: 0.018

biosequence: CCGAGTAA
PBM E-score: 0.256

biosequence: CGTACACA
PBM E-score: 0.402

biosequence: AAAAACGG
PBM E-score: 0.13

biosequence: TGTACACA
PBM E-score: 0.0209

biosequence: GGGGGTTA
PBM E-score: -0.298

biosequence: CCGAGTAG
PBM E-score: 0.0401

biosequence: CCGAGTAC
PBM E-score: 0.24

biosequence: GAAGTCCC
PBM E-score: -0.172

biosequence: ATCCTTTA
PBM E-score: -0.159

biosequence: GCCCGGCC
PBM E-score: -0.229

biosequence: CTACGGCA
PBM E-score: 0.1

biosequence: ACGAGTAG
PBM E-score: 0.38

biosequence: CTGGATGC
PBM E-score: -0.159

biosequence: AGTACACA
PBM E-score: 0.18

biosequence: ACACGGCG
PBM E-score: -0.0862

biosequence: ATGAAGGC
PBM E-score: -0.102

biosequence: TGGCGTAA
PBM E-score: 0.0429

biosequence: AGTAGTCG
PBM E-score: 0.238

biosequence: AAACGGCA
PBM E-score: 0.294

biosequence: ACTGGAAA
PBM E-score: -0.0956

biosequence: GCGAGTAC
PBM E-score: 0.324

biosequence: AAACGAGG
PBM E-score: 0.476

biosequence: ATTCTATA
PBM E-score: -0.00057

biosequence: CATCAATG
PBM E-score: -0.153

biosequence: ATGTCGTA
PBM E-score: 0.446

biosequence: CGTACACG
PBM E-score: 0.382

biosequence: AAGAGTAT
PBM E-score: -0.113

biosequence: CAAGCTTC
PBM E-score: 0.0567

biosequence: GCACGGCA
PBM E-score: -0.0485

biosequence: CGTTGAGC
PBM E-score: 0.0667

biosequence: TTAGGGAA
PBM E-score: -0.0515

biosequence: ACACGGCA
PBM E-score: 0.108

biosequence: GATCCACA
PBM E-score: -0.13

biosequence: ATACGGCA
PBM E-score: 0.404

biosequence: ACGAGTAC
PBM E-score: 0.421

biosequence: AGTCGTGA
PBM E-score: 0.0257

biosequence: GATTAGCC
PBM E-score: 0.0338

biosequence: GGCACCGA
PBM E-score: -0.0384

biosequence: CGTATAGC
PBM E-score: 0.477

biosequence: GCGAGTAA
PBM E-score: 0.114

biosequence: GTAAACCA
PBM E-score: 0.0466

biosequence: AAAAACGA
PBM E-score: 0.323

biosequence: CAAGGGTA
PBM E-score: -0.0852

biosequence: GGTACTAC
PBM E-score: 0.0611

biosequence: AGTCGTAA
PBM E-score: 0.395

biosequence: CGGCACGA
PBM E-score: 0.176

biosequence: ATTTGCGG
PBM E-score: 0.0753

biosequence: CAGGCTTA
PBM E-score: -0.245

biosequence: GCTAGCCC
PBM E-score: -0.379

biosequence: CCGGAGGA
PBM E-score: -0.171

biosequence: GCACGTAC
PBM E-score: 0.168

biosequence: GGTCGTGA
PBM E-score: -0.0346

biosequence: AAGTGGCC
PBM E-score: -0.248

biosequence: CTGAAGAC
PBM E-score: 0.056

biosequence: ATAAACTG
PBM E-score: 0.0158

biosequence: CTGACCCA
PBM E-score: -0.312

biosequence: GGCATTCA
PBM E-score: -0.0839

biosequence: ATAAACGA
PBM E-score: 0.484

biosequence: CTGCCTCA
PBM E-score: -0.257

biosequence: ATTTGAAC
PBM E-score: 0.0528

biosequence: TGGCACCA
PBM E-score: -0.213

biosequence: GGTACTAA
PBM E-score: 0.0853

biosequence: TCACGAGA
PBM E-score: 0.0348

biosequence: ATACGGCC
PBM E-score: 0.388

biosequence: ACCGAGTG
PBM E-score: 0.159
